inhibition listing for selected compounds.
# Study Target: Amyloid-beta precursor protein (Homo sapiens)
# Test: Inhibition of A-beta-42 production by inhibiting Gamma-secretase proteolytic pathway in HEK293 cell stably transfected with a double mutant form of human APP(K595N/M596L), at 2.5 uM concentration
# Assay type: cell-based
# unit: % | format: bare number

INSERT INTO assay_data (compound, meas_value) VALUES
  ('CC12CC[C@@H](C1)C(C)(C)[C@H]2NS(=O)(=O)c1ccc(F)cc1', 0),
  ('CC12CC[C@@H](C1)C(C)(C)[C@@H]2NS(=O)(=O)c1ccc(F)cc1 (single isomer, unassigned; (+))', 58),
  ('CC1(C)[C@H]2CC[C@](C)(C2)[C@H]1NS(=O)(=O)c1ccc(F)cc1', 19),
  ('CC1(C)[C@@H]2CC[C@@](C)(C2)[C@H]1NS(=O)(=O)c1ccc(F)cc1', 0),
  ('CC12CC[C@@H](C1)C(C)(C)[C@@H]2NS(=O)(=O)c1ccc(Cl)cc1', 26),
  ('CC12CC[C@@H](C1)C(C)(C)[C@@H]2NS(=O)(=O)c1ccc(Br)cc1', 24),
  ('CC12CC[C@@H](C1)C(C)(C)[C@@H]2NS(=O)(=O)c1cccs1', 47);

Pending compound:
# inhibition of CC12CCC(C1)C(C)(C)C2NS(=O)(=O)c1ccc(F)cc1 (stereo not drawn) = 31

// provenance: ChEMBL document CHEMBL1133739
